These entries and their values trace back to the supplement of paper PMC6555819.

Catalogue of PBM binding z-score readings, one per entry.
# System: PPARg:RXRa 270nM:90nM, anti-RXR (NR concentration 270 nM, RXRa partner concentration 90 nM)
# experimental-protocol: PBM binding z-score (relative to random genomic background probes); higher = stronger binding; sequences stand for … in GC…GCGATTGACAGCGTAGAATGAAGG
reported-metric: PBM binding z-score

{"construct-sequence": "CAAACTAGGTCAAGAGGTCAAAGTACGCTTCCCG", "reported": 8.3}
{"construct-sequence": "CATACAGGGTCAGCTAGGGCAGAGTAGGGACGGC", "reported": 3.05}
{"construct-sequence": "ACAGACAGGTGATGATGGTAACTCAGGCTATCAT", "reported": -0.301}
{"construct-sequence": "CGTCAAAGTTCAACTAAGGTAGCGTAAAGCACGC", "reported": 5.37}
{"construct-sequence": "GGAACGAGGGCAAGTTGATCGCAGAGTTTGATGG", "reported": 0.878}
{"construct-sequence": "CTTAGCAGGCCAGGGTCACTCAAGCATTTCGCTT", "reported": 1.93}
{"construct-sequence": "CGTCCAAGGTCAAGGCCAGTGAAAGAGACTCGAA", "reported": 5.05}
{"construct-sequence": "CGTCAAAGCTCAAGGTAACGTAACAGAAAGCAGC", "reported": -0.193}
{"construct-sequence": "GCTAGTTGGTCAGTAAAAGGGCACACACCGGTCG", "reported": 1.04}
{"construct-sequence": "ACTATTCGTTGACTTAGGGCAACCGATACGACGC", "reported": -0.0902}
{"construct-sequence": "CCGACTGGGCCAAAGGTCATTGATTCCAATGCTC", "reported": 10}
{"construct-sequence": "CCAGACAGTTGAGAAGGTAACTCAGCCTCGATTA", "reported": -0.218}
{"construct-sequence": "ATATGTAGCTTAGCTGGGGTCATTCAGACTAGGC", "reported": 2.3}
{"construct-sequence": "AGAATGAGGTTATTAAAATCAGGGAATTGCGGTC", "reported": 1.43}
{"construct-sequence": "GCTTATAGGTAATACAAGGTGAAAGTCCGATTGT", "reported": 1.22}
{"construct-sequence": "ACTAGTTGGGCAGCTGAGGTCACACACAATTCGG", "reported": 1.8}
{"construct-sequence": "TAGCGTAGGTCATGGGCCAGTATACCACGCGAAC", "reported": 4.08}
{"construct-sequence": "TGAATGAGATTATAAGATCAGGGAACGTTGCAAA", "reported": 0.0746}
{"construct-sequence": "AGAATCAGGTTATTAAGATCAGGGAATTGCGGTC", "reported": 1.04}
{"construct-sequence": "ATCGAAAGGTCGAAGGTGAGTGTACCCACCCGAA", "reported": 4.69}

* * *

# System: PPARg:RXRa IVT, anti-PPARg (NR concentration 270 nM, RXRa partner concentration 90 nM)
# experimental-protocol: PBM binding z-score (relative to random genomic background probes); higher = stronger binding; sequences stand for … in GC…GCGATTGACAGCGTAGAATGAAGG
reported-metric: PBM binding z-score

{"construct-sequence": "CGAACTAGGTCATGCAGGACAGTGAATACATTGA", "system-name": "PPARg:RXRa IVT, anti-PPARg (NR concentration 270 nM, RXRa partner concentration 90 nM)", "reported": 8.18}
{"construct-sequence": "CCGAGTAGGTTATGGGGCAGTCAGGCAACGGTGA", "system-name": "PPARg:RXRa IVT, anti-PPARg (NR concentration 270 nM, RXRa partner concentration 90 nM)", "reported": 3.05}
{"construct-sequence": "CCTACTGGGCCAAAGTCATTGATCAGTCAAAGCA", "system-name": "PPARg:RXRa IVT, anti-PPARg (NR concentration 270 nM, RXRa partner concentration 90 nM)", "reported": 3.6}
{"construct-sequence": "AACTCTAGGTAAAAGTTCAGTGAATCCCGAGGAT", "system-name": "PPARg:RXRa IVT, anti-PPARg (NR concentration 270 nM, RXRa partner concentration 90 nM)", "reported": 3.74}
{"construct-sequence": "CCTACGGGGCCAAAAAGGTCATTGATGCCGATAA", "system-name": "PPARg:RXRa IVT, anti-PPARg (NR concentration 270 nM, RXRa partner concentration 90 nM)", "reported": 1.52}
{"construct-sequence": "ATCTCTAGGTAACCAAGCTCAGTGAATGCCGAAC", "system-name": "PPARg:RXRa IVT, anti-PPARg (NR concentration 270 nM, RXRa partner concentration 90 nM)", "reported": 2.13}
{"construct-sequence": "ATATGTAGGTTAGCTGGGGTCAATCAGACTAGGC", "system-name": "PPARg:RXRa IVT, anti-PPARg (NR concentration 270 nM, RXRa partner concentration 90 nM)", "reported": 6.36}
{"construct-sequence": "CCAGACAGGTGAAATGTAACTCAGTCTGGTACGC", "system-name": "PPARg:RXRa IVT, anti-PPARg (NR concentration 270 nM, RXRa partner concentration 90 nM)", "reported": 0.99}
{"construct-sequence": "ACATACAGGTGATGAAGGTAACTCAGGCTATCAT", "system-name": "PPARg:RXRa IVT, anti-PPARg (NR concentration 270 nM, RXRa partner concentration 90 nM)", "reported": 1.16}
{"construct-sequence": "GCTTACGGGTCAAACGTTATAGCATGAATAGAAT", "system-name": "PPARg:RXRa IVT, anti-PPARg (NR concentration 270 nM, RXRa partner concentration 90 nM)", "reported": 4.1}
{"construct-sequence": "CCGATTGGGGCAGAAAGGTTACCATACCATCCGG", "system-name": "PPARg:RXRa IVT, anti-PPARg (NR concentration 270 nM, RXRa partner concentration 90 nM)", "reported": 1.14}
{"construct-sequence": "TCTAGTAGGTTACCAATGGGGCATTCAGCTTTCT", "system-name": "PPARg:RXRa IVT, anti-PPARg (NR concentration 270 nM, RXRa partner concentration 90 nM)", "reported": 5.27}
{"construct-sequence": "CCTCGGAGGACAACAGGCGGTCAGAGCTGCCAGA", "system-name": "PPARg:RXRa IVT, anti-PPARg (NR concentration 270 nM, RXRa partner concentration 90 nM)", "reported": -0.851}
{"construct-sequence": "ACTTACGGGACAACGAGGTTATAGCACGCGTATA", "system-name": "PPARg:RXRa IVT, anti-PPARg (NR concentration 270 nM, RXRa partner concentration 90 nM)", "reported": 0.83}
{"construct-sequence": "AGAACGAGGGCACGCTGAGTCGATAGCAGAGTAG", "system-name": "PPARg:RXRa IVT, anti-PPARg (NR concentration 270 nM, RXRa partner concentration 90 nM)", "reported": 3.81}
{"construct-sequence": "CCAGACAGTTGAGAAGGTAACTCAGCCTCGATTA", "system-name": "PPARg:RXRa IVT, anti-PPARg (NR concentration 270 nM, RXRa partner concentration 90 nM)", "reported": -0.312}
